molecular target: LAP2, Q96RT1; assay: holdup assay; design: key: below the threshold = too weak to quantify, mostly under pKd 3.1 to 4; details: plain residues with an end cap or a label only (N-terminal biotin on a linker: ado-ado)
Sequence (Q96RT1 other isoform, or with tags, fused parts or gaps): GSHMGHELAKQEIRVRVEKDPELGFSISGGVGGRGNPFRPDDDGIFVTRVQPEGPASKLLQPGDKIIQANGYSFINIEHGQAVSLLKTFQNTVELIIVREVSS
OUTCOME_MEASURE: pKd

Worked examples, 7 binders total:
BINDER: RGKNRRQSIF [CDK18, Q07002]
pKd: 3.74
//
BINDER: EPAKETTTNV [SLC2A3, P11169]
pKd: 3.64
//
BINDER: FVFESRKEIL [TBPL1, P62380]
pKd: below the threshold
//
BINDER: PALKNGQYWV [CSPG4, Q6UVK1]
pKd: 3.75
//
BINDER: AHGSTRDQSI [KCNB1, Q14721]
pKd: below the threshold
//
BINDER: DSEEELPTRL [GRK6, P43250]
pKd: below the threshold
//
BINDER: HYPASPDSWV [CTNND2, Q9UQB3]
pKd: 5.58

Okay, now this binder:
Request: Complete the entry with pKd for QQGLLPHSSC [TYRO3, Q06418]
Response: below the threshold
